# System: E. coli BW25113 ΔtolC growth inhibition, OD615
# ASSAY_REMARKS: growth inhibitors of E. coli tolC mutant, dose response, strain BW25113 ΔtolC::kan (AID 617);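 further: growth read after 20 h at 37 °C with compound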
MEASURED_METRIC: IC50

// known answers, use as guide
CC1=CC(C)(C)N(C(=O)CSc2nnc(-c3ccccc3)o2)c2ccc(C)cc21    16.3 µM
Cc1ccc2c(c1)c(C)c(C)n2CC(O)Cn1nc(C)c(Br)c1C (configuration not stated)    11.8 µM
COc1ccc(S(=O)(=O)n2cnc3cc(C)c(C)cc32)cc1C    13.6 µM
Cc1ccc(CN2C(=O)NC(=O)C3(Cc4c(nc5ccccn5c4=O)N4CCCCCC43)C2=O)cc1 (configuration not stated)    22.2 µM
Fc1ccc(Cn2nnnc2C(c2cccs2)N2CCCCCC2)cc1 (configuration not stated)    10.5 µM

Query block: Data request, read-out IC50, for `N/C(=N/O)c1nc(N2CCCC2)nc(N(c2ccccc2)c2ccccc2)n1`
Result block: 10.9 µM

Query block: Data request, read-out IC50, for `O=C(Nc1ccc(CN2CCOCC2)cc1)c1ccc(-c2ccc(Br)cc2)o1`
Result block: 30.4 µM

Query block: Data request, read-out IC50, for `CCn1cc(Br)c(C(=O)Nc2ccc(C(=O)OC(C)C)cc2)n1`
Result block: 12.3 µM

Query block: Data request, read-out IC50, for `CCc1ccccc1N(C)C(=O)CCc1nc(-c2ccc(C)cc2)no1`
Result block: 13.8 µM

Query block: Data request, read-out IC50, for Cc1ccc2c(c1)c1c(n2CC(O)Cn2c(C)nc3ccccc32)/C(=N\O)CCC1 (configuration not stated)
Result block: 26.1 µM

Query block: Data request, read-out IC50, for CCC(C)(C)n1nnnc1C(c1cc2ccc(C)cc2[nH]c1=O)N(Cc1cccnc1)Cc1ccco1 (configuration not stated)
Result block: 15.2 µM

Query block: Data request, read-out IC50, for `COc1ccc(-c2cnc(SCC(=O)Nc3cc(C)on3)n2Cc2ccco2)cc1`
Result block: 35.7 µM

Query block: Data request, read-out IC50, for `N#Cc1cn(Cc2cccc(Cl)c2)c2ccccc12`
Result block: 7.45 µM

Query block: Data request, read-out IC50, for COc1ccc(C2c3sc(=O)[nH]c3SC3C4CCC(C4)C23)cc1 (configuration not stated)
Result block: 10 µM

Query block: Data request, read-out IC50, for `O=C(COn1nnc2ccc(C(F)(F)F)cc21)Nc1nnc(-c2ccccc2)o1`
Result block: 0.64 µM

Query block: Data request, read-out IC50, for `Nc1nc(CN2CCN(c3cccc(Cl)c3)CC2)nc(N2CCCc3ccccc32)n1`
Result block: 4.27 µM

---

# Tested on: E. coli BW25113 ΔtolC growth inhibition, OD615
# ASSAY_REMARKS: growth inhibitors of E. coli tolC mutant, dose response, strain BW25113 ΔtolC::kan (AID 617);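 further: growth read after 20 h at 37 °C with compound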
MEASURED_METRIC: pIC50
Kindly note that pIC50 refers to -log10 of the concentration in mol/L and answer with the value alone.

// known answers, use as guide
Cc1nc2ncnn2c(N2CCN(C(c3ccccc3)c3ccccc3)CC2)c1C    5.16
COc1ccc(-c2[nH]ncc2-c2cnn(-c3ccccc3)c2)c(O)c1    4.90

Query block: What value of pIC50 on E. coli BW25113 ΔtolC growth inhibition, OD615 does `c1ccc(-c2cccc(-c3ccccn3)n2)nc1` have?
Result block: 4.71

Query block: What value of pIC50 on E. coli BW25113 ΔtolC growth inhibition, OD615 does `O=C(COc1ccc2ccccc2c1Br)N1CCN(c2ccccn2)CC1` have?
Result block: 4.98

Query block: What value of pIC50 on E. coli BW25113 ΔtolC growth inhibition, OD615 does `CC(C)OCCCNc1ncnc2c1[nH]c1ccccc12` have?
Result block: 5.23

Query block: What value of pIC50 on E. coli BW25113 ΔtolC growth inhibition, OD615 does `Cc1cccc(OCCn2c(NC(=O)c3ccco3)nc3ccccc32)c1` have?
Result block: 4.96

Query block: What value of pIC50 on E. coli BW25113 ΔtolC growth inhibition, OD615 does `O=C(Nc1cccc(Cl)c1)N(CCN1CCOCC1)Cc1cccc(Cl)c1` have?
Result block: 5.19
